Measured relative affinity of individual entries
targetOrTestSystem: T1, HLA-DP401 (HLA-DPB1*04:01) (human, UniProt P20036 29-222)
T1 construct: mature; purified from homozygous EBV-transformed lymphoblastoid cells with antibody B7/21
T1 sequence (P20036 29-222 limits assumed, chain 1 of 3, other chains not shown): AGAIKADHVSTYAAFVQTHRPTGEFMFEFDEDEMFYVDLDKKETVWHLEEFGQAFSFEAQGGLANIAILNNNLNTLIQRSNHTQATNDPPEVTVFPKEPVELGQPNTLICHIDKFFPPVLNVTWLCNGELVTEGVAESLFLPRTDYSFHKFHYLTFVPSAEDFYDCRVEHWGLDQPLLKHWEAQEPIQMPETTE
experimentalProtocol: competition ELISA vs biotin-Oxy 271-287
No end group written: not given here.
Output: the number by itself.

Sample records with relative affinity:
MELTMLDYDMVHFPP-NH2 [CCNB1 327-341] :: 2
PNLCSEYVKDIYAYL-NH2 [CCNB1 164-178] :: 274
LSYTEESLLPVMQHL-NH2 [CCNB1 369-383] :: 4

Please examine the following record next.
relative affinity recorded for this binder, EKLSPEPILVDTASP-NH2 [CCNB1 113-127] , is 72
